// data source = patent US7214703B2

# maps each entry to its pKi
System Tested: human chemokine receptor CCR3 (Homo sapiens, UniProt P51677)
pKi: −log10 of the molar value.

Worked cases, pKi given:
>>> test_value("Clc1ccc(C=C2CCN3Cc4ccccc4N=C23)c(Cl)c1")
"5.00 to 6.00"
>>> test_value("N=c1c2cccnc2nc2n1CC/C2=C\\c1ccccc1Br")
"6.00 to 7.00"
>>> test_value("CCOc1ccccc1/C=C1\\CCN2Cc3ccccc3N=C12")
"5.00 to 6.00"

Please look at the following compound next.
# return recorded pKi for entry Fc1ccc(C=C2CCN3Cc4ccccc4N=C23)c(Cl)c1
6.00 to 7.00

###

# Ki per entry
Protein target, amino acids: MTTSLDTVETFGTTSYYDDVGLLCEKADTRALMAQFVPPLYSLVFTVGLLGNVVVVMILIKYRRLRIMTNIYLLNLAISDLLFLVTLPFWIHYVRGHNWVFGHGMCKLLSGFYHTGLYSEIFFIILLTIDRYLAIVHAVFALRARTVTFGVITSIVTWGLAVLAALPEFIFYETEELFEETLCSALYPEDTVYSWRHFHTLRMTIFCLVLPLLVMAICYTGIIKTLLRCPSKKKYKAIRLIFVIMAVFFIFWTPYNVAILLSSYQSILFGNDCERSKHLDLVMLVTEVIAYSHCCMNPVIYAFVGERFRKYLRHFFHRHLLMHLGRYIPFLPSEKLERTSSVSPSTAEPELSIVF

Recorded Ki, per entry:
>>> test_value("Clc1ccc(/C=C2\\CCN3Cc4ccccc4N=C23)cc1Cl [Example 112]")
"0.1 to 1 µM"
>>> test_value("C(=C1/CCN2Cc3ccccc3N=C12)/c1ccccc1-c1ccccc1 [Example 117]")
"1 to 10 µM"
>>> test_value("CN(C)c1ccc(/C=C2\\CCN3Cc4ccccc4N=C23)c(Cl)c1 [Example 107]")
"1 to 10 µM"

Retrieve Ki measured for COc1ccc(C=C2CCn3c2nc2ccccc2c3=N)cc1 [Example 205] and print it.
1 to 10 µM

Report Ki for Fc1ccccc1/C=C1\CCN2Cc3ccccc3N=C12 [Example 106]
1 to 10 µM

Return Ki (reported value) for this molecule: Clc1ccccc1/C=C1\CCN2Cc3cc(Br)cc(Br)c3N=C12 [Example 102]
1 to 10 µM

Kindly indicate its recorded Ki. Item: Brc1cccc2cccc(C=C3CCN4Cc5ccccc5N=C34)c12 [Example 124]
1 to 10 µM

Recall and state the measured Ki for Brc1ccccc1C=C1CCN2Cc3ccccc3N=C12 [Example 101] .
0.001 to 0.1 µM

Provide only the value of recorded Ki for N=c1c2ccsc2nc2n1CCC2=Cc1ccccc1Br [Example 301]
0.001 to 0.1 µM

For the molecule C(=C1CCN2Cc3ccccc3N=C12)c1ccco1 [Example 115] , give its measured Ki value.
1 to 10 µM

###

Counter-ions that a name gives are not always drawn.
Endpoint: melting point (°C)
Please respond with the number in °C and leave the unit unwritten.

Examples from the recorded data:
>>> test_value("CCc1ccccc1C=C1CCN2Cc3ccccc3N=C12 (as salt: HCl) [Example 110]")
257
>>> test_value("N=c1c2c(C3CC3)csc2nc2n1CC/C2=C\\c1ccccc1Br [Example 305]")
209
>>> test_value("CN(C)c1ccc(/C=C2\\CCN3Cc4ccccc4N=C23)cc1 [Example 111]")
205
>>> test_value("FC(F)(F)Oc1ccccc1C=C1CCN2Cc3ccccc3N=C12 (as salt: HCl) [Example 122]")
225
>>> test_value("C(=C1CCN2Cc3ccccc3N=C12)c1ccco1 [Example 115]")
170
>>> test_value("Clc1ccc(/C=C2\\CCN3Cc4ccccc4N=C23)cc1Cl [Example 112]")
200
>>> test_value("Cc1sc2nc3n(c(=N)c2c1C)CC/C3=C\\c1ccccc1Br [Example 303]")
180

Consider the additional compound presented here.
For N=c1c2cccnc2nc2n1CC/C2=C\c1ccccc1Br [Example 208] , write its melting point.
232

###

Endpoint: melting point

Consider the reported melting point for these compounds:
>>> test_value("Clc1ccc(C=C2CCN3Cc4ccccc4N=C23)c(Cl)c1 [Example 120]")
"187 to 188 °C"
>>> test_value("N=c1c2ccccc2nc2n1CC/C2=C\\c1ccccc1Cl [Example 202]")
"202 to 203 °C"
>>> test_value("CCOc1ccccc1/C=C1\\CCN2Cc3ccccc3N=C12 [Example 113]")
"157 to 158 °C"

Field: next compound
# return recorded melting point for input Clc1cccc(Cl)c1C=C1CCN2Cc3ccccc3N=C12 [Example 105]
198 to 199 °C

###

Structures can show the parent of a compound that is named as a salt.
Endpoint: melting point

Consider the reported melting point for these compounds:
>>> test_value("Brc1cccc2cccc(C=C3CCN4Cc5ccccc5N=C34)c12 [Example 124]")
"252 to 255 °C"
>>> test_value("CCc1ccccc1C=C1CCN2Cc3ccccc3N=C12 (as salt: hydrochloride) [Example 127]")
"224 to 225 °C"
>>> test_value("C(=C1/CCN2Cc3ccccc3N=C12)/c1ccccc1-c1ccccc1 (as salt: HCl) [Example 117]")
"255 to 256 °C"
>>> test_value("C(=C1/CCN2Cc3ccccc3N=C12)/c1ccsc1 [Example 116]")
"208 to 209 °C"
>>> test_value("Clc1ccccc1C=C1CCN2Cc3ccccc3N=C12 [Example 103]")
"190 to 191 °C"

Identify measured melting point associated with COc1ccc(/C=C2\CCN3Cc4ccccc4N=C23)cc1C [Example 119]
174 to 175 °C

Determine from records and report melting point for COc1ccc(C=C2CCn3c2nc2ccccc2c3=N)cc1 [Example 205]
175 to 177 °C

Provide measured melting point value, entry: COc1cc2nc3n(c(=N)c2cc1OC)CC/C3=C\c1ccccc1Br [Example 206]
192 to 194 °C

Please indicate melting point recorded for Clc1ccccc1C=C1CCCN2Cc3ccccc3N=C12 [Example 126]
242 to 248 °C

Read the entry N=c1c2ccsc2nc2n1CCC2=Cc1ccccc1Br [Example 301] and write its reported melting point.
183 to 184 °C

Assign melting point to the following record: C(=C1/CCN2Cc3ccccc3N=C12)/c1cccs1 [Example 114]
208 to 210 °C

Read the entry Fc1ccc(C=C2CCN3Cc4ccccc4N=C23)c(Cl)c1 [Example 118] and write its reported melting point.
202 to 203 °C

###

Reported values of melting point for individual entries
Structures can show the parent of a compound that is named as a salt.

>>> test_value("Clc1ccccc1/C=C1\\CCN2Cc3cc(Br)cc(Br)c3N=C12 [Example 102]")
"214 to 219 °C"
>>> test_value("Fc1ccccc1/C=C1\\CCN2Cc3ccccc3N=C12 (as salt: HCl) [Example 106]")
"285 °C"

Note melting point for the compound shown: Cc1oc2nc3n(c(=N)c2c1C)CC/C3=C\c1ccccc1Br [Example 306]
> 290 °C

Name the recorded melting point of the compound listed here: CN(C)c1ccc(/C=C2\CCN3Cc4ccccc4N=C23)c(Cl)c1 (as salt: HCl) [Example 107]
> 300 °C

Supply recorded melting point for FC(F)(F)c1ccccc1/C=C1\CCN2Cc3ccccc3N=C12 (as salt: HCl) [Example 108] here.
109 to 110 °C
